target: HLA-A*02:06; test: IEDB peptide-MHC binding, purified MHC/competitive/radioactivity; filed as Kd, often an IC50 or EC50 that approximates it; bounds were set here for any values at or beyond the usual limits of such assays; conditions: source organism: Mammarenavirus guanaritoense
pKd: −log10 of the molar value.
recordedMetric: pKd

{"itemSequence": "YCNYTRFWYI", "recordedMetric": "pKd", "endpointResult": 7.09}

----------
Here the recorded pKd is given for each entry.
molecular target: HLA-A*01:01; assay: IEDB peptide-MHC binding, purified MHC/direct/fluorescence; filed as Kd, often an IC50 or EC50 that approximates it; bounds were set here for any values at or beyond the usual limits of such assays; details: source organism: Brucella melitensis
pKd: −log10 of the molar value.
recordedMetric: pKd

{"itemSequence": "CTDPPLLSV", "operatorSymbol": "=", "endpointResult": 5.16}
{"itemSequence": "ALFEDYPGC", "operatorSymbol": "≤", "endpointResult": 4.70}
